Item-by-item account of Kd
- Study system: T1, full-length human Tau (Tau441; 2N4R), recombinant (human, UniProt P10636 1-758)
- T1 construct: made in E. coli, His6-Smt3 tag removed; biotinylated through amines for Octet and phage work; also called r-Tau; recombinant Tau
- T1 sequence (P10636 other isoform, or with tags, fused parts or gaps limits assumed): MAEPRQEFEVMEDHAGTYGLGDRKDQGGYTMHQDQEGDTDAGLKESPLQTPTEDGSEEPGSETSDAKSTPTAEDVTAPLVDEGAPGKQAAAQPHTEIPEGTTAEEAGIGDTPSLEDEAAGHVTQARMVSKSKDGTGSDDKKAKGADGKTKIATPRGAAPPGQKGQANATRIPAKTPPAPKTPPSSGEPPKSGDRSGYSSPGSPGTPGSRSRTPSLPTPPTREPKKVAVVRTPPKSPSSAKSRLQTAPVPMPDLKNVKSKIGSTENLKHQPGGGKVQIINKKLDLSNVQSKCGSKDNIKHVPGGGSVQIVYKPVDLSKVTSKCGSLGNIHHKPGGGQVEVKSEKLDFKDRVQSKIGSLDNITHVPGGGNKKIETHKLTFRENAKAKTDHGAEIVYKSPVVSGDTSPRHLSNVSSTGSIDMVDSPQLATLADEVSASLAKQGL
- Procedure summary: SPR Biacore
Measure name: Kd (nM)

[[record]]
binder = "hu1C7.v2 (S49A) (antibody, V domains shown) VH: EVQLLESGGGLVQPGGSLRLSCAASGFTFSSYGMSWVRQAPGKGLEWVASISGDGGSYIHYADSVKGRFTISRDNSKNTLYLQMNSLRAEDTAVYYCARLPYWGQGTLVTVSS VL: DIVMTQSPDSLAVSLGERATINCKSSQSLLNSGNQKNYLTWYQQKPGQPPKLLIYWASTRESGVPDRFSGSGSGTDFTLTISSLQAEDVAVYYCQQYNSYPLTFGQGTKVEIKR"
measure_name = "Kd"
test_result = 1.45

[[record]]
binder = "Clone with L1_3-6 (antibody, V domains shown, based on hu1C7.v2) VH: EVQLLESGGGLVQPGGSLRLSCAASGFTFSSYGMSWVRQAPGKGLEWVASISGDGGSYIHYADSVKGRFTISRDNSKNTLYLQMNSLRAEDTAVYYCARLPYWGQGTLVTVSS VL: DIVMTQSPDSLAVSLGERATINCKSSQSLHQSGTQKDYLVWYQQKPGQPPKLLIYWASTRESGVPDRFSGSGSGTDFTLTISSLQAEDVAVYYCQQYNSYPLTFGQGTKVEIK"
measure_name = "Kd"
test_result = 0.349

[[record]]
binder = "Clone with H1_2-1 (antibody, V domains shown, based on hu1C7.v2) VH: EVQLLESGGGLVQPGGSLRLSCAASGFTFSSVGTSWVRQAPGKGLEWVASISGDGGSYIHYADSVKGRFTISRDNSKNTLYLQMNSLRAEDTAVYYCARLPYWGQGTLVTVSS VL: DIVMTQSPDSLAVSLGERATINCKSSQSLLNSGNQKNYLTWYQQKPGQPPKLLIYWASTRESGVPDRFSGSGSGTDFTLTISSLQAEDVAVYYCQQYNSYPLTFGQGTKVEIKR"
measure_name = "Kd"
test_result = 1.3

[[record]]
binder = "Clone with L1_3-8 (antibody, V domains shown, based on hu1C7.v2) VH: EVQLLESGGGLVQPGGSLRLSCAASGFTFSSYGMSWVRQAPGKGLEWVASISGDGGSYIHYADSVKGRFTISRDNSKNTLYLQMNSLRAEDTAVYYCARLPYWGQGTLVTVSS VL: DIVMTQSPDSLAVSLGERATINCKSSQSLHLSGTQKDYLVWYQQKPGQPPKLLIYWASTRESGVPDRFSGSGSGTDFTLTISSLQAEDVAVYYCQQYNSYPLTFGQGTKVEIK"
measure_name = "Kd"
test_result = 0.51

[[record]]
binder = "Clone with L1_7 (antibody, V domains shown, based on hu1C7.v2) VH: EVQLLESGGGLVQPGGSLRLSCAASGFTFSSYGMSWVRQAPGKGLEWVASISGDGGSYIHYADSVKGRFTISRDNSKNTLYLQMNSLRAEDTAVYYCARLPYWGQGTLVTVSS VL: DIVMTQSPDSLAVSLGERATINCKSSQSLLNAGNQKNYLTWYQQKPGQPPKLLIYWASTRESGVPDRFSGSGSGTDFTLTISSLQAEDVAVYYCQQYNSYPLTFGQGTKVEIKR"
measure_name = "Kd"
test_result = 0.651

[[record]]
binder = "Clone with H1_2 (antibody, V domains shown, IgG based on hu1C7.v2) VH: EVQLLESGGGLVQPGGSLRLSCAASGFTFSRVGTSWVRQAPGKGLEWVASISGDGGSYIHYADSVKGRFTISRDNSKNTLYLQMNSLRAEDTAVYYCARLPYWGQGTLVTVSS VL: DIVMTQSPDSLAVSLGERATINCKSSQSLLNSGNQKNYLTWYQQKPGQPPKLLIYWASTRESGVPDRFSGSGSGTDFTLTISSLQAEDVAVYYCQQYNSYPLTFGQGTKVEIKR"
measure_name = "Kd"
test_result = 0.478

[[record]]
binder = "Clone with H1_2-2 (antibody, V domains shown, based on hu1C7.v2) VH: EVQLLESGGGLVQPGGSLRLSCAASGFTFSMVGTSWVRQAPGKGLEWVASISGDGGSYIHYADSVKGRFTISRDNSKNTLYLQMNSLRAEDTAVYYCARLPYWGQGTLVTVSS VL: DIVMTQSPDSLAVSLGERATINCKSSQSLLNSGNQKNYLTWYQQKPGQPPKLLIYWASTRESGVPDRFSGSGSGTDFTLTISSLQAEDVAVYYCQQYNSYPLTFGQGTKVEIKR"
measure_name = "Kd"
test_result = 0.759

[[record]]
binder = "Clone with H1_4-5 (antibody, V domains shown, based on hu1C7.v2) VH: EVQLLESGGGLVQPGGSLRLSCAASGFRFSGYGMSWVRQAPGKGLEWVASISGDGGSYIHYADSVKGRFTISRDNSKNTLYLQMNSLRAEDTAVYYCARLPYWGQGTLVTVSS VL: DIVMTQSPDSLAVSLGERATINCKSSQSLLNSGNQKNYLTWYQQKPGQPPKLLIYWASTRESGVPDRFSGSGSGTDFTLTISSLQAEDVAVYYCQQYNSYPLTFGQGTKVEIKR"
measure_name = "Kd"
test_result = 0.591

[[record]]
binder = "Clone with L3_6 (antibody, V domains shown, based on hu1C7.v2) VH: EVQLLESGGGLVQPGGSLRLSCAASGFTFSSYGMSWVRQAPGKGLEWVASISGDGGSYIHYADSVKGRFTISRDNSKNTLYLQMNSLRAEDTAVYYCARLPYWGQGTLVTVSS VL: DIVMTQSPDSLAVSLGERATINCKSSQSLLNSGNQKNYLTWYQQKPGQPPKLLIYWASTRESGVPDRFSGSGSGTDFTLTISSLQAEDVAVYYCQQYSSYPLTFGQGTKVEIKR"
measure_name = "Kd"
test_result = 0.69

